# Test system: MRSA
# assay.procedure: Kill or inhibit growth/proliferation; morphology, biofilm and growth disruption (Tables 5, 6); further: test concentration or dose not given here
# Format: cell-based, Methicillin-resistant Staphylococcus aureus
# Design: key: A: Peptide aggregates; B: Less hyphal formation; Clumps; Diffuse clumps and small polyps; F: Diffuse growth; H: Thin; I: Growth inhibition; Microcolony formation; Rippled; Small polyps; Thick; W: Halo formation on top, microlonies on bottom

{"substance": "PF-451: peptide having multiple activities (chain 1 MVNYIIGSYMLYREQNNNEALRKFDITLAM; chain 2 MVNYIIGSYMLYREQNNNEALRKFDITLAM; Peptide with targeting and/or antimicrobial activity)", "Organism, effect": "MRSA (C)"}
{"substance": "PF-624 (VFLLDSYCFVKINL; Peptide with targeting and/or antimicrobial activity)", "Organism, effect": "MRSA (C)"}
{"substance": "PF-443: peptide having multiple activities (chain 1 KLLYFFNYFENLQQVHLLVQL; chain 2 KLLYFFNYFENLQQVHLLVQL; Peptide with targeting and/or antimicrobial activity)", "Organism, effect": "MRSA (C)"}
